assay: Solubility test in C12-C15 alkyl benzoate oil (Finsolv TN); format: physicochemical; set-up: key: +=well-soluble; −=not soluble; conditions: 5% m/m; dissolved at 80° C. for 1 hour, cooled to room temperature, inspected after 24 hours
MEASUREMENT_LABEL: Solubility in Finsolv TN, dissolved amount (m/m %) 5%

MOLECULE | ENDPOINT_RESULT
CCCCCCCCOC(=O)C(=CC=CN(CCCCCCN(C=CC=C(C(=O)OCCCCCCCC)S(=O)(=O)c1ccccc1)Cc1ccccc1)CCCCCCN(C=CC=C(C(=O)OCCCCCCCC)S(=O)(=O)c1ccccc1)Cc1ccccc1)S(=O)(=O)c1ccccc1 | +
CCCCCCCCOC(=O)C(=CC=CN(CCCC)CCN(C=CC=C(C(=O)OCCCCCCCC)S(=O)(=O)c1ccccc1)CCN(C=CC=C(C(=O)OCCCCCCCC)S(=O)(=O)c1ccccc1)CCCC)S(=O)(=O)c1ccccc1 | +
CCCCC(CC)COC(=O)C(=CC=CN(CCCCCCN(C=CC=C(C(=O)OCC(CC)CCCC)S(=O)(=O)c1ccccc1)Cc1ccccc1)CCCCCCN(C=CC=C(C(=O)OCC(CC)CCCC)S(=O)(=O)c1ccccc1)Cc1ccccc1)S(=O)(=O)c1ccccc1 (centres unmarked) | −
CCCCCCCCCCCCCCCCCCOC(=O)C(=CC=CN(CCCCCCN(C=CC=C(C(=O)OCCCCCCCCCCCCCCCCCC)S(=O)(=O)c1ccccc1)Cc1ccccc1)CCCCCCN(C=CC=C(C(=O)OCCCCCCCCCCCCCCCCCC)S(=O)(=O)c1ccccc1)Cc1ccccc1)S(=O)(=O)c1ccccc1 | +
CC(C)OC(=O)C(=CC=CN(CCCCCCN(C=CC=C(C(=O)OC(C)C)S(=O)(=O)c1ccccc1)Cc1ccccc1)CCCCCCN(C=CC=C(C(=O)OC(C)C)S(=O)(=O)c1ccccc1)Cc1ccccc1)S(=O)(=O)c1ccccc1 | −
